biological target: T1, Full-length cynomolgus monkey TIGIT on CHO-K1 cells (CHO-K1 cynomolgus monkey TIGIT) (cynomolgus monkey); experiment: cell binding, CHO-K1 cynomolgus monkey TIGIT
T1 construct: NCBI XP_015300911.1
T1 sequence (chain, as listed by the source limits assumed): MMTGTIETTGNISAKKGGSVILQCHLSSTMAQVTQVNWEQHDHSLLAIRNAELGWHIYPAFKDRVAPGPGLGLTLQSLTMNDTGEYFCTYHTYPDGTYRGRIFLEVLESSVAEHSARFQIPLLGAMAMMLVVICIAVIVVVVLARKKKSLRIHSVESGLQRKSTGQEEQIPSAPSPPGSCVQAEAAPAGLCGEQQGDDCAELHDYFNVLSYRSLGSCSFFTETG
A collection of binders and their measured EC50
Unit pM implied. Number only.

1) TIGIT-006-H5L3 (antibody, V domains shown, Humanized anti-TIGIT antibody) VH: EVQLQESGPGLVKPSETLSLTCAVSGYSMTSDYWNWIRQPPGKKLEYIGYISYSGRTYYNPSLKSRVTISRDTSKNQFSLKLSSVTAADTAVYYCARGDYSNYGGAMYDWGQGTTVTVSS VL: DIVMTQSPDSLAVSLGERATINCRASQGVSTTIAWYQQKPGQSPKLLIYSASYRYTGVPRFSGSGSGTDFTLTISSLQAEDVAVYYCQQYYSSPFTFGGGTKVEIK | 57.8
2) TIGIT-002-H4L1 (antibody, V domains shown, Humanized anti-TIGIT antibody) VH: EVQLQESGPGLVKPSETLSLTCAVSGYSITSDSWNWIRQPPGKKLEYIGYISYSGNTYYNPSLKSRVTISRDTSKNQFSLKLSSVTAADTAVYYCARLDFSNYGGAVDYWGQGTTVTVSS VL: DIVMTQTPLSLSVTPGQPASISCKASQNVRTAVAWYLQKPGQSPQLMIYSASYRYTGVPDRFSGSGSGTDFTLKISRVEAEDVGVYYCQQYYTTPWTFGGGTKVEIK | 54.3
3) TIGIT-006-H5L2 (antibody, V domains shown, Humanized anti-TIGIT antibody) VH: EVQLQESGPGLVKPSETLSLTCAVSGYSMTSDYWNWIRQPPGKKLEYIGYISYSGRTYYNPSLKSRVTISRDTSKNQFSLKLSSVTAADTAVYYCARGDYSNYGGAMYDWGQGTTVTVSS VL: DIVMTQTPLSLSVTPGQPASISCRASQGVSTTIAWYQQKPGQSPKLLIYSASYRYTGVPDRFSGSGSGTDFTLKISRVEAEDVGVYYCQQYYSSPFTFGGGTKVEIK | 84.9
4) TIGIT-070-H1L2 (antibody, V domains shown, Humanized anti-TIGIT antibody) VH: EVQLVQSGAEVKKPGASVKVSCKASGYTFTNYYMHWVRQAPGQRLEWMGRIDPDSGGSKYNEKFKSRVTITVDKSASTAYMELSSLRSEDTAVYYCAREGHYGFYSDYWGQGTTVTVSS VL: DIQMTQSPSSLSASVGDRVTITCRVSENIYSYLAWYQQKPGKSPKLLVYNAKTLAEGVPSRFSGSGSGTDFTLTISSLQPEDFATYYCQHHYGNPLTFGPGTKVDIK | 87.9

Turning to the following binder.
Input line: Dear colleague, I am looking for the recorded EC50 of the following binder: TIGIT-005-H2L1a (antibody, V domains shown, Humanized anti-TIGIT antibody with NG-site mutation in VL) VH: EVQLVQSGAEVKKPGASVKVSCKASGYAFTNYLIEWVRQAPGQRLEWMGVINPGSGGTNYKEKFKGRVTITADKSSSTAYMELSSLRSEDTAVYYCARGEYFFFDYWGQGTTVTVSS VL: DIVMTQSPDSLAVSLGERATINCKASQHVSQGVAWYQHKPGQSPKLLIYSASYRYTGVPDRFSGSGSGTDFTLTISSLQAEDVAVYYCQQHYNTPHTFGGGTKVEIK
Output line: 56.1
